Below, each entry is listed with its recorded CC50 at 48 h.
ASSAY_NAME: Cytotoxicity assay (CellTiter Glo) on hepatocarcinoma cells
Assay type: cell-based
RUN_PARAMETERS: human, Huh7 hepatocarcinoma cells; pyrimidines and pyridines; Huh7 hepatocarcinoma; read out at 48 h; mean ± SD
PROPERTY_NAME: CC50 at 48 h

>  <COMPOUND>
Oc1ccccc1/C=N/Nc1cc(Nc2ccc(F)cc2)nc(Nc2ccc(F)cc2)c1 [Compound 33a]

>  <PROPERTY_NAME>
CC50 at 48 h

>  <OBSERVED>
18 µM

$$$$
>  <COMPOUND>
Cc1cccc(/C=N/Nc2cc(N3CCOCC3)nc(N3CCOCC3)n2)c1 [Compound 14b]

>  <PROPERTY_NAME>
CC50 at 48 h

>  <OBSERVED>
8 µM

$$$$
>  <COMPOUND>
Oc1ccccc1/C=N/Nc1cc(Nc2ccc(F)cc2)nc(Nc2ccc(F)cc2)n1 [Compound 19a]

>  <PROPERTY_NAME>
CC50 at 48 h

>  <OBSERVED>
1 µM

$$$$
>  <COMPOUND>
Oc1ccccc1/C=N/Nc1cc(Nc2ccc(F)cc2)nc(N2CCOCC2)n1 [Compound 21a]

>  <PROPERTY_NAME>
CC50 at 48 h

>  <OBSERVED>
3 µM

$$$$

====

Listing: solubility kinetic at 3 h of selected compounds
ASSAY_NAME: Kinetic aqueous solubility
Format: physicochemical
RUN_PARAMETERS: Milli-Q water, 25 °C, water, kinetic from dmso stock; Mill-Q H2O, 3 h, RT; LOD 0.1 µg/mL

>  <COMPOUND>
Cc1cccc(/C=N/Nc2cc(Nc3ccc(F)cc3)nc(N3CCOCC3)c2)c1 [Compound 38b]

>  <solubility kinetic at 3 h>
0.54 µg/mL

$$$$
>  <COMPOUND>
Oc1ccccc1/C=N/Nc1cc(Nc2ccc(F)cc2)nc(Nc2ccc(F)cc2)n1 [Compound 19a]

>  <solubility kinetic at 3 h>
< 0.1 µg/mL

$$$$
>  <COMPOUND>
Oc1ccccc1/C=N/Nc1cc(Nc2ccc(F)cc2)nc(N2CCOCC2)n1 [Compound 21a]

>  <solubility kinetic at 3 h>
< 0.1 µg/mL

$$$$
>  <COMPOUND>
Cc1cccc(/C=N/Nc2cc(Nc3ccc(F)cc3)nc(Nc3ccc(F)cc3)n2)c1 [Compound 19b]

>  <solubility kinetic at 3 h>
< 0.1 µg/mL

$$$$
>  <COMPOUND>
Cc1cccc(/C=N/Nc2cc(Nc3ccc(F)cc3)nc(Nc3ccc(F)cc3)c2)c1 [Compound 33b]

>  <solubility kinetic at 3 h>
< 0.1 µg/mL

$$$$

====

ASSAY_NAME: Metabolic stability assay with human liver microsomes
Type: in vitro ADME
RUN_PARAMETERS: 1 h, 37 °C, 50 µM
Listed molecules paired with reported Metabolic Stability
PROPERTY_NAME: Metabolic Stability (%)

>  <MOLECULE>
Cc1cccc(/C=N/Nc2cc(Nc3ccc(F)cc3)nc(N3CCOCC3)c2)c1 [Compound 38b]

>  <PROPERTY_NAME>
Metabolic Stability

>  <CENSOR_SYMBOL>
=

>  <OBSERVED>
97.93

$$$$
>  <MOLECULE>
Cc1cccc(/C=N/Nc2cc(Nc3ccc(F)cc3)nc(Nc3ccc(F)cc3)c2)c1 [Compound 33b]

>  <PROPERTY_NAME>
Metabolic Stability

>  <CENSOR_SYMBOL>
>

>  <OBSERVED>
99.9

$$$$
>  <MOLECULE>
Oc1ccccc1/C=N/Nc1cc(Nc2ccc(F)cc2)nc(N2CCOCC2)n1 [Compound 21a]

>  <PROPERTY_NAME>
Metabolic Stability

>  <CENSOR_SYMBOL>
>

>  <OBSERVED>
99.9

$$$$
>  <MOLECULE>
Cc1cccc(/C=N/Nc2cc(Nc3ccc(F)cc3)nc(Nc3ccc(F)cc3)n2)c1 [Compound 19b]

>  <PROPERTY_NAME>
Metabolic Stability

>  <CENSOR_SYMBOL>
=

>  <OBSERVED>
98.31

$$$$
>  <MOLECULE>
Oc1ccccc1/C=N/Nc1cc(Nc2ccc(F)cc2)nc(Nc2ccc(F)cc2)n1 [Compound 19a]

>  <PROPERTY_NAME>
Metabolic Stability

>  <CENSOR_SYMBOL>
>

>  <OBSERVED>
99.9

$$$$

====

Tested on: Caco-2 cells
ASSAY_NAME: Cytotoxicity assay (CellTiter Glo) on colon epithelial carcinoma cells
RUN_PARAMETERS: pyrimidines and pyridines; ratio CC50 FB789 / CC50 Caco-2
TSI Caco-2 less than 7 is Met; TSI Caco-2 greater than or equal to 7 is Not met.

>  <COMPOUND>
Oc1ccccc1/C=N/Nc1cc(Nc2ccc(F)cc2)nc(N2CCOCC2)c1 [Compound 38a]

>  <CAT>
Met

$$$$
>  <COMPOUND>
Cc1cccc(/C=N/Nc2cc(Nc3ccc(F)cc3)nc(N3CCOCC3)n2)c1 [Compound 21b]

>  <CAT>
Met

$$$$
>  <COMPOUND>
Cc1cccc(/C=N/Nc2cc(Nc3ccc(F)cc3)nc(Nc3ccc(F)cc3)n2)c1 [Compound 19b]

>  <CAT>
Not met

$$$$
>  <COMPOUND>
Cc1cccc(/C=N/Nc2cc(N3CCOCC3)nc(N3CCOCC3)c2)c1 [Compound 27b]

>  <CAT>
Met

$$$$
>  <COMPOUND>
Cc1cccc(/C=N/Nc2cc(N3CCOCC3)nc(N3CCOCC3)n2)c1 [Compound 14b]

>  <CAT>
Met

$$$$
>  <COMPOUND>
Cc1cccc(/C=N/Nc2cc(Nc3ccc(F)cc3)nc(N3CCOCC3)c2)c1 [Compound 38b]

>  <CAT>
Not met

$$$$
>  <COMPOUND>
Oc1ccccc1/C=N/Nc1cc(Nc2ccc(F)cc2)nc(Nc2ccc(F)cc2)c1 [Compound 33a]

>  <CAT>
Met

$$$$
>  <COMPOUND>
Oc1ccccc1/C=N/Nc1cc(Nc2ccc(F)cc2)nc(N2CCOCC2)n1 [Compound 21a]

>  <CAT>
Met

$$$$
>  <COMPOUND>
Cc1cccc(/C=N/Nc2cc(Nc3ccc(F)cc3)nc(Nc3ccc(F)cc3)c2)c1 [Compound 33b]

>  <CAT>
Not met

$$$$

====

Reported log10(CC50 at 48 h) values for the following compounds.
ASSAY_NAME: Cytotoxicity assay (CellTiter Glo) on normal fibroblasts
Format: cell-based, human
RUN_PARAMETERS: human, FB789 normal fibroblast cells, pyrimidines and pyridines, read out at 48 h, mean ± SD
PROPERTY_NAME: log10(CC50 at 48 h) (log10 of the value in µM)

>  <COMPOUND>
Oc1ccccc1/C=N/Nc1cc(N2CCOCC2)nc(N2CCOCC2)n1 [Compound 14a]

>  <PROPERTY_NAME>
log10(CC50 at 48 h)

>  <OBSERVED>
1.48

$$$$
>  <COMPOUND>
Oc1ccccc1/C=N/Nc1cc(Nc2ccc(F)cc2)nc(N2CCOCC2)n1 [Compound 21a]

>  <PROPERTY_NAME>
log10(CC50 at 48 h)

>  <OBSERVED>
1.00

$$$$
>  <COMPOUND>
Oc1ccccc1/C=N/Nc1cc(Nc2ccc(F)cc2)nc(Nc2ccc(F)cc2)c1 [Compound 33a]

>  <PROPERTY_NAME>
log10(CC50 at 48 h)

>  <OBSERVED>
-0.52

$$$$
>  <COMPOUND>
Oc1ccccc1/C=N/Nc1cc(N2CCOCC2)nc(N2CCOCC2)c1 [Compound 27a]

>  <PROPERTY_NAME>
log10(CC50 at 48 h)

>  <OBSERVED>
1.04

$$$$
>  <COMPOUND>
Cc1cccc(/C=N/Nc2cc(N3CCOCC3)nc(N3CCOCC3)n2)c1 [Compound 14b]

>  <PROPERTY_NAME>
log10(CC50 at 48 h)

>  <OBSERVED>
0.95

$$$$
>  <COMPOUND>
Cc1cccc(/C=N/Nc2cc(Nc3ccc(F)cc3)nc(Nc3ccc(F)cc3)c2)c1 [Compound 33b]

>  <PROPERTY_NAME>
log10(CC50 at 48 h)

>  <OBSERVED>
2.59

$$$$
>  <COMPOUND>
Oc1ccccc1/C=N/Nc1cc(Nc2ccc(F)cc2)nc(N2CCOCC2)c1 [Compound 38a]

>  <PROPERTY_NAME>
log10(CC50 at 48 h)

>  <OBSERVED>
0.48

$$$$
>  <COMPOUND>
Cc1cccc(/C=N/Nc2cc(Nc3ccc(F)cc3)nc(N3CCOCC3)n2)c1 [Compound 21b]

>  <PROPERTY_NAME>
log10(CC50 at 48 h)

>  <OBSERVED>
1.98

$$$$
>  <COMPOUND>
Cc1cccc(/C=N/Nc2cc(N3CCOCC3)nc(N3CCOCC3)c2)c1 [Compound 27b]

>  <PROPERTY_NAME>
log10(CC50 at 48 h)

>  <OBSERVED>
1.91

$$$$
>  <COMPOUND>
Oc1ccccc1/C=N/Nc1cc(Nc2ccc(F)cc2)nc(Nc2ccc(F)cc2)n1 [Compound 19a]

>  <PROPERTY_NAME>
log10(CC50 at 48 h)

>  <OBSERVED>
1.15

$$$$
>  <COMPOUND>
Cc1cccc(/C=N/Nc2cc(Nc3ccc(F)cc3)nc(N3CCOCC3)c2)c1 [Compound 38b]

>  <PROPERTY_NAME>
log10(CC50 at 48 h)

>  <OBSERVED>
1.95

$$$$
>  <COMPOUND>
Cc1cccc(/C=N/Nc2cc(Nc3ccc(F)cc3)nc(Nc3ccc(F)cc3)n2)c1 [Compound 19b]

>  <PROPERTY_NAME>
log10(CC50 at 48 h)

>  <OBSERVED>
1.79

$$$$

Data provenance is paper PMC11013010.
